Test system: mono-methyl arginine in RKO cells
assay info: RKO Methylation Assay, In Cell Western (ICW) for mono-methyl arginine and DNA content
Type: cell-based
conditions used: Homo sapiens, RKO, 72 h, RKO cells, 72 hours, mono-methyl arginine, percent activation; single experiment or average of multiple experiments; read-out: EC30 (In Cell Western data, Numerical)
This section presents compounds with their documented log10(EC30) values.
Log10 applied to EC30; unit prior to transform: µM.

Answered examples (5):
CN(CCN)Cc1c[nH]nc1-c1cccc(F)c1: 0.57
CNCCN(C)Cc1c[nH]nc1-c1ccc(OC(CO)C(C)C)cc1 (centres unmarked): -0.09
CNCCN(C)Cc1c[nH]nc1-c1ccc(Oc2ccccc2F)cc1: -0.94
CC(C)Oc1cccc(-c2n[nH]cc2CN(C)CCN)c1: 0.85
CN(CCN)Cc1c[nH]nc1-c1ccc(OC(F)F)cc1: 0.25

# evaluate next
Tell me the measured log10(EC30) of CCC(CC)Oc1ccc(-c2n[nH]cc2CN(C)CCNC)cc1 , please.
-1.68

---

System: mono-methyl arginine in RKO cells
assay info: RKO Methylation Assay, In Cell Western (ICW) for mono-methyl arginine and DNA content
Format: cell-based
conditions used: Homo sapiens, RKO, 72 h, RKO cells, 72 hours, mono-methyl arginine, percent activation; single experiment or average of multiple experiments; read-out: EC30 (In Cell Western data, Numerical)
The label depends only on EC30: met if it is at least 800 nM, not met if it is smaller.

Please review the following examples before continuing.
CN(CCN)Cc1c[nH]nc1-c1ccc2c(c1)OCC(=O)N2C: met
CN(CCN)Cc1n[nH]cc1-c1ccc(C#N)cc1: met
NCCN(Cc1c[nH]nc1-c1ccc(F)cc1)C1CC1: met
CNCCN(C)Cc1cn(C2CCCCC2)nc1-c1ccc(OC(C)C)cc1: met
CN(CCN)Cc1c[nH]nc1-c1ccc(C(C)(C)C)cc1: met

Would you say CNCCN(C)Cc1c[nH]nc1-c1ccc(Oc2cccc(OC)c2)cc1 shows EC30 at minimum 800 nM?
not met

Would you say CC(C)Oc1ccc(-c2n[nH]cc2CN(C)CCN)cc1 shows EC30 at minimum 800 nM?
not met

---

system: human PRMT6 (Homo sapiens)
Construct: Flag-PRMT6-His; made in house; host or cells: HEK 293F cells (BacMam baculovirus)
assay info: PRMT6 Biochemical Assay (3H-SAM Flashplate, peptide substrate)
conditions used: Biochemical IC50 PRMT6, single experiment or average of multiple experiments
This section presents molecules with their documented IC50 values.

COCCn1cc(CN(C)CCN(C)C)c(-c2ccc(F)cc2)n1 [Compound 61]: > 10000 nM
CNCCN(C)Cc1c[nH]nc1-c1ccc(Oc2ccccc2C(=O)NC)cc1 [Compound 274]: 7.57 nM
CNCCN(C)Cc1c[nH]nc1-c1ccc(OC2CC2)cc1 [Compound 293]: 28.8 nM

What value of IC50 on human PRMT6 (Homo sapiens) does CN(CCN)Cc1c[nH]nc1-c1ccc(Oc2ccccc2)c(C(=O)N(C)C)c1 [Compound 226] have?
13.8 nM

What value of IC50 on human PRMT6 (Homo sapiens) does COc1ccccc1-c1n[nH]cc1CN(C)CCN [Compound 109] have?
217 nM

What value of IC50 on human PRMT6 (Homo sapiens) does CNCCN(C)Cc1cn(CC(N)=O)nc1-c1ccc(OC(C)C)cc1 [Compound 251] have?
2370 nM

What value of IC50 on human PRMT6 (Homo sapiens) does CN(CCN)Cc1c[nH]nc1-c1ccc(OCCN2CCOCC2)cc1 [Compound 172] have?
26.4 nM

What value of IC50 on human PRMT6 (Homo sapiens) does COCCn1ncc(CN(C)CCN)c1-c1ccc(F)cc1 [Compound 6] have?
312 nM

---

system: human PRMT6 (Homo sapiens, UniProt Q96LA8)
Construct: Flag-PRMT6-His; made in house; host or cells: HEK 293F cells (BacMam baculovirus)
Sequence (Q96LA8 with tags, fused parts or gaps): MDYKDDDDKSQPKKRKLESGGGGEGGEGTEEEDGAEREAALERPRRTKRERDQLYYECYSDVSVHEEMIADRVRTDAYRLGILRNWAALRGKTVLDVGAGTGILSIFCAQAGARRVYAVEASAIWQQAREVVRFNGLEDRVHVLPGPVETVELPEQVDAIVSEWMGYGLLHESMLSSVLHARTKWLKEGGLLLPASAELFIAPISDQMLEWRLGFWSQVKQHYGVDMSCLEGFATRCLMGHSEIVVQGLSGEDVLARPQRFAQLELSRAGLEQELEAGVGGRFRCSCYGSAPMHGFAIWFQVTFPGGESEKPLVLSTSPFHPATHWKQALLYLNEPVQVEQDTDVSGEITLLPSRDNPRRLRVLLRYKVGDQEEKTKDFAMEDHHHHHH
assay info: PRMT6 Biochemical Assay (3H-SAM Flashplate, peptide substrate)
conditions used: Biochemical IC50 PRMT6, single experiment or average of multiple experiments
quantity name: pIC50
Value format note: pIC50 is -log10 of concentration (mol/L); just state the number.

Answered examples (2):
CNCCN(C)Cc1c[nH]nc1-c1ccc(OCC2CCC2)cc1 [Compound 307]: 7.71
CN(CCN)Cc1c[nH]nc1-c1ccc(N2CCNCC2)cc1 [Compound 82]: 6.89

# evaluate next
What value of pIC50 on human PRMT6 (Homo sapiens, UniProt Q96LA8) does CC(O)c1ccc(-c2n[nH]cc2CN(C)CCN)cc1 (centres unmarked) [Compound 115] have?
7.59

---

system: human PRMT6 (Homo sapiens)
Construct: Flag-PRMT6-His; made in house; host or cells: HEK 293F cells (BacMam baculovirus)
assay info: PRMT6 Biochemical Assay (3H-SAM Flashplate, peptide substrate)
conditions used: Biochemical IC50 PRMT6
Structures can show the parent of a compound that is named as a salt.
This section presents compounds with their documented IC50 values.

Answered examples (3):
CNCCN(C)Cc1c[nH]nc1-c1ccc(Oc2ncccn2)cc1: < 100 nM
CNCCN(C)Cc1c[nH]nc1-c1ccc(N(C)C(C)C)cc1: 101 to 1000 nM
CCC(COC)Oc1ccc(-c2n[nH]cc2CN(C)CCNC)cc1 (stereo not drawn): < 100 nM

# evaluate next
Tell me the measured IC50 of CNCCN(C)Cc1cnn(C)c1-c1ccc(OC(C)C)cc1 [Compound 244, hydrochloride] , please.
< 100 nM

---

system: Human CARM1 (PRMT4) (Homo sapiens, UniProt Q86X55)
Construct: Flag-CARM1-His; made in house; host or cells: HEK 293F cells (BacMam baculovirus)
Sequence (Q86X55 1-585 isoform Q86X55-1): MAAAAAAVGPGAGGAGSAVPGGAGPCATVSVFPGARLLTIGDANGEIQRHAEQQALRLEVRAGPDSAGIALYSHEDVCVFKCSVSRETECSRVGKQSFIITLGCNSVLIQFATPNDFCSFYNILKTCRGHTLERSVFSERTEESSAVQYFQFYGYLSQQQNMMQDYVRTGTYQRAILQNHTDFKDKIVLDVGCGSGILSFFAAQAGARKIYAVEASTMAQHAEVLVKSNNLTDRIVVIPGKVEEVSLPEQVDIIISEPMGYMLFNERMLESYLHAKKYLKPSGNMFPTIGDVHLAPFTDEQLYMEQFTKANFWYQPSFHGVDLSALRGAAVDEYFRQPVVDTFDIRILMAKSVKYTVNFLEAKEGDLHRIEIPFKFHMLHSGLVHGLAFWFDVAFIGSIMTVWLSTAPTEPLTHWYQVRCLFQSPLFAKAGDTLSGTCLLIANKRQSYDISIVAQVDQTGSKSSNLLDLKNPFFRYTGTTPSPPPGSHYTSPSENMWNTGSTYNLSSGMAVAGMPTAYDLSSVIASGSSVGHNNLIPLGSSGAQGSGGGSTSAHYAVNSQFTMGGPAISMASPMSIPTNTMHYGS
assay info: CARM1 Biochemical Assay (3H-SAM Flashplate, peptide substrate)
conditions used: single experiment or average of multiple experiments
quantity name: IC50 (nM)
Output spec: scalar in nM, unitless text.

CNCCN(C)Cc1cn(CC(N)=O)nc1-c1ccc(OC(C)C)cc1: 2980
CCNC(=O)c1cccc(-c2n[nH]cc2CN(C)CCNC)c1: 4960
CN(CCN)Cc1c[nH]nc1-c1ccccc1: 2900
CN(CCN)Cc1c[nH]nc1-c1cccc(Cl)c1F: 1870
CNCCN(C)Cc1c[nH]nc1-c1ccccc1OC: 1760
CNCCN(C)Cc1cn[nH]c1-c1cc(F)cc(F)c1: 656
CN(CCN)Cc1c[nH]nc1-c1ccc(C(F)(F)F)c(Cl)c1: 602
CN(CCN)Cc1c[nH]nc1-c1ccc(N2CCNCC2)cc1: 9010
CCNC(=O)c1ccc(-c2n[nH]cc2CN(C)CCN)cc1: 2070
CN(CCN)Cc1c[nH]nc1-c1cccc(F)c1: 715

Tell me the measured IC50 of CN(CCN)Cc1c[nH]nc1-c1ccc(F)cc1 , please.
1350

Tell me the measured IC50 of CN(CCN)Cc1cn(C2COC2)nc1-c1ccc(F)cc1 , please.
4090

Tell me the measured IC50 of CN(CCN)Cc1cnn(C)c1-c1ccc(F)cc1 , please.
742

Tell me the measured IC50 of CNCCN(C)Cc1cn(CCC(O)CO)nc1-c1ccc(F)cc1 (stereo not shown) , please.
4590

Tell me the measured IC50 of CNCCN(C)Cc1c[nH]nc1-c1ccc(C(=O)c2ccccc2)cc1 , please.
42.9

Tell me the measured IC50 of CN(CCN)Cc1n[nH]cc1-c1ccc(C#N)cc1 , please.
4130

---

system: UniProtKB Q9NR22
Sequence (Q9NR22 whole entry): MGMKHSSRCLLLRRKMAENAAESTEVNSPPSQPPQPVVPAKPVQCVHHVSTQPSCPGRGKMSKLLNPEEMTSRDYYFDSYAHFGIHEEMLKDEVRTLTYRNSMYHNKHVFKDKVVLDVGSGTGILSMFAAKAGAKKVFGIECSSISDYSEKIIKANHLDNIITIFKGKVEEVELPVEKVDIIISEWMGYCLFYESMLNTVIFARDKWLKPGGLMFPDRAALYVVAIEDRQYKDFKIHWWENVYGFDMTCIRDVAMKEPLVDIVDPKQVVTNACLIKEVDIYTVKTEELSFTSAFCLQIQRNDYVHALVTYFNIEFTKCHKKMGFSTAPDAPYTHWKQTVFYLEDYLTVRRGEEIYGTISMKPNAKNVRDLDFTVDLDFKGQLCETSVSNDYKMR
assay info: PRMT8 Biochemical Assay (3H-SAM Flashplate, peptide substrate)
conditions used: single experiment or average of multiple experiments
This section presents molecules with their documented pIC50 values.
Value format note: pIC50 is -log10 of concentration (mol/L); just state the number.

Answered examples (5):
CNCCN(C)Cc1c[nH]nc1-c1ccc(OC(COC)CC(C)C)cc1 (stereo not shown): 6.96
CN(CCN)Cc1c[nH]nc1-c1ccc(C(F)(F)F)cc1C(F)(F)F: 5.37
CNCCN(C)Cc1c[nH]nc1-c1ccccc1OC(F)(F)F: 5.17
CN(CCN)Cc1c[nH]nc1-c1ccc(Oc2ccccc2)c(C#N)c1: 6.73
CN(CCN)Cc1c[nH]nc1-c1ccccc1C#N: 5.08

What value of pIC50 on UniProtKB Q9NR22 does CNCCN(C)Cc1c[nH]nc1-c1ccc(N(C)C(C)C)cc1 have?
7.19

What value of pIC50 on UniProtKB Q9NR22 does CN(CCN)Cc1cn(C2COC2)nc1-c1ccc(F)cc1 have?
5.78

What value of pIC50 on UniProtKB Q9NR22 does CCN(C)C(=O)c1ccc(-c2n[nH]cc2CN(C)CCN)cc1 have?
5.84

What value of pIC50 on UniProtKB Q9NR22 does COc1ccc(-c2n[nH]cc2CN(C)CCN)c(OC)c1 have?
5.51

What value of pIC50 on UniProtKB Q9NR22 does CCN(CCN)Cc1c[nH]nc1-c1ccc(F)cc1 have?
6.44

What value of pIC50 on UniProtKB Q9NR22 does CN(CCN)Cc1c[nH]nc1-c1ccc(C(C)(C)C)cc1 have?
6.73

What value of pIC50 on UniProtKB Q9NR22 does CNCCN(C)Cc1c[nH]nc1-c1ccc(OCC2CCOCC2)cc1 have?
7.04

What value of pIC50 on UniProtKB Q9NR22 does CN(CCN)Cc1c[nH]nc1-c1ccc(C2CC2)cc1 have?
6.91
